These measurements were taken from patent US5166348A.

Consider the following compounds and their measured LD50 readings.
- assay.details: acute toxicity, oral, mongrel albino mice
- run.parameters: mouse, in vivo
# value in mg/kg; strip the unit string

Entry CCC(N)C12CC3CC(CC(C3)C1)C2 (centres unmarked) [adapromine, reference compound] , LD50 reported as 45

Now look at this one.
The compound listed as CC(N)C12CC3CC(CC(C3)C1)C2 (centres unmarked) [remantadine, reference compound] shows LD50 equal to 640
